biological target: T1, purified recombinant MHC II protein, allele DRB1*0301 (human); assay: MHC II competition binding assay;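 also: Peptide–MHC II complexes pulled from equilibrium mixtures onto ELISA plates carrying a conformation-specific anti-HLA-DR antibody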
T1 construct: bought from Benaroya Research Institute; also called MHC-II DR molecule
readout-label: pIC50
# pIC50: negative log10 of molar concentration; output just the value

>  <binder>
GVDFFMNIGTPVKAISSGKIV [cluster 2 wild-type (C2WT) epitope peptide]

>  <quantitative-result>
4.22

$$$$

Okay, next one:
The value of pIC50 measured for the binder GVDFFMNIGTPVHAISSGKIV (synthetic mutated peptide of the lysostaphin catalytic domain; also called K46H) [cluster 2 peptide with Lys46His] turned out to be 3.82
